Can you tell me IC50 for the items I'm about to list?
Target: RORγ (Homo sapiens, UniProt P51449)
Sequence (P51449 269-508 limits assumed): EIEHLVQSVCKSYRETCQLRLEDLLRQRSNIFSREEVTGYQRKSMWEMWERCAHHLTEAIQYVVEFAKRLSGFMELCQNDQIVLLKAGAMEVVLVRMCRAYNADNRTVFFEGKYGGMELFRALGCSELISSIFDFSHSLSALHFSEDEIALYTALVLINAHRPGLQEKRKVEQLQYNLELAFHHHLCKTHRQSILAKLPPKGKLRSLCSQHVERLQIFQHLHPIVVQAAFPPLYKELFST
Test: RORγ GAL4 reporter gene assay
Conditions: mean pIC50, inhibition of RORγ (GAL4-RORγ-LBD) in 293FT cells, luciferase readout, overnight incubation

compound | result
CCS(=O)(=O)c1ccc(CC(=O)Nc2ccc(C(O)(C(F)(F)F)C(F)(F)F)cc2)cc1F | ≤ 1 µM
CCS(=O)(=O)c1ccc(CC(=O)Nc2ccc(C(O)(C3CC3)C(F)(F)F)cc2)cc1 (stereo not drawn) | ≤ 1 µM
CNS(=O)(=O)c1cccc(CC(=O)Nc2ccc(C(O)(C(F)(F)F)C(F)(F)F)cc2)c1 | ≤ 1 µM
CCCOC(c1ccc(NC(=O)Cc2ccc(S(=O)(=O)NC3CC3)cc2)cc1)(C(F)(F)F)C(F)(F)F | ≤ 0.1 µM
COC(c1ccc(NC(=O)Cc2ccc(S(=O)(=O)CC3CC3)cc2)cc1)(C(F)(F)F)C(F)(F)F | ≤ 0.1 µM

Field: IC50. Fill in for each record below.
1. CCS(=O)(=O)c1ccc(CC(=O)Nc2ccc(C(OCc3ccccc3)(C(F)(F)F)C(F)(F)F)cc2)cc1
2. CCS(=O)(=O)c1ccc(CC(=O)Nc2cc(Cl)c(C(O)(C(F)(F)F)C(F)(F)F)cc2OC)cc1
3. Cc1cc(C(O)(C(F)(F)F)C(F)(F)F)ccc1NC(=O)Cc1ccc(S(=O)(=O)CC2CC2)cc1
4. O=C(Cc1ccc(S(=O)(=O)CC2CC2)cc1)Nc1ccc(C(O)C(F)(F)F)cc1 (stereo not drawn)

Response line:
1. ≤ 1 µM
2. ≤ 1 µM
3. ≤ 0.1 µM
4. ≤ 1 µM
